- Tested on: ATP;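 further: ATP exposure 15 min at 22 °C before imaging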
- Assay Name: switch fluorescence ratio, 500 uM ATP over buffer (Cy3 cluster intensity, sum of 5 cycles each) (fold (ratio)); higher = stronger signal-on switching upon ATP binding; sequences stand for … in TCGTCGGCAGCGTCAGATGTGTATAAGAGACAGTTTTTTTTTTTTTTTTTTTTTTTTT…TC
- Setup Conditions: aptamer strand: ATP DNA aptamer (quencher-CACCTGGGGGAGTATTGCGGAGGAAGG + anchor), 100 nM annealed; ATP concentration: 500 uM
Measured Metric: switch fluorescence ratio

>>> obs_value("TTGATTGGTA")
1
>>> obs_value("AAAGGGGGTT")
1.04
>>> obs_value("GGTAGTAGAG")
1.02
>>> obs_value("CGCTAGGTTG")
1.01
>>> obs_value("ATTTACTAGA")
1
>>> obs_value("TGGAAAAAG")
0.989
>>> obs_value("GTATCTGGGT")
0.997
>>> obs_value("CTGGGGCGTT")
0.983
>>> obs_value("CTATGATCTT")
0.992
>>> obs_value("GGGTCGTGCT")
1.03
>>> obs_value("CCTAAGGGGG")
1.04
>>> obs_value("CGTGTAGTTG")
1.02

====

- System: ATP;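 further: ATP exposure 15 min at 22 °C before imaging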
- Assay Name: switch fluorescence ratio, 500 uM ATP over buffer (Cy3 cluster intensity, sum of 5 cycles each) (fold (ratio)); higher = stronger signal-on switching upon ATP binding; sequences stand for … in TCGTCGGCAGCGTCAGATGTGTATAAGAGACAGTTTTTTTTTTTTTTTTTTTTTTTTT…TC
- Setup Conditions: aptamer strand: ATP DNA aptamer (quencher-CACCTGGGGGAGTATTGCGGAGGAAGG + anchor), 100 nM annealed; ATP concentration: 500 uM
The following sequences are shown together with reported switch fluorescence ratio values.
Measured Metric: switch fluorescence ratio

>>> obs_value("AAGTGATGGT")
1
>>> obs_value("ATGGGGCAGC")
1
>>> obs_value("TTAAAGTTTT")
1.01
>>> obs_value("AGGGGGGAGC")
1.01
>>> obs_value("AGGGGTTACG")
0.981
>>> obs_value("CTTGATTTTT")
1
>>> obs_value("GGGGTTTTCG")
1.01
>>> obs_value("CGAGTCCAAG")
1.01
>>> obs_value("TCATGTAAGA")
0.998
>>> obs_value("TGTCCTAGCG")
0.99
>>> obs_value("ATTAAGTCGT")
0.982

====

The following sequences are shown together with reported switch fluorescence ratio values.
- Tested on: ATP;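 further: ATP exposure 15 min at 22 °C before imaging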
- Assay Name: switch fluorescence ratio, 500 uM ATP over buffer (Cy3 cluster intensity, sum of 5 cycles each) (fold (ratio)); higher = stronger signal-on switching upon ATP binding; sequences stand for … in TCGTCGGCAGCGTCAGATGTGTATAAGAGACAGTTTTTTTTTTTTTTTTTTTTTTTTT…TC
- Setup Conditions: aptamer strand: ATP DNA aptamer (quencher-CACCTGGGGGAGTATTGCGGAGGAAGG + anchor), 100 nM annealed; ATP concentration: 500 uM
Measured Metric: switch fluorescence ratio

>>> obs_value("GCGAAAACGC")
1.04
>>> obs_value("TGCTCCTTTT")
1
>>> obs_value("TTCGTTGGGG")
1.01
>>> obs_value("CATCTAAAGA")
1.01
>>> obs_value("CGTCACAGTG")
1.04

====

The following sequences are shown together with reported switch fluorescence ratio values.
- Test system: ATP;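 further: ATP exposure 15 min at 22 °C before imaging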
- Assay Name: switch fluorescence ratio, 500 uM ATP over buffer (Cy3 cluster intensity, sum of 5 cycles each) (fold (ratio)); higher = stronger signal-on switching upon ATP binding; sequences stand for … in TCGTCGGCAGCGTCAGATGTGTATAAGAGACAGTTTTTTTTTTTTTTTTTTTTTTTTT…TC
- Setup Conditions: aptamer strand: ATP DNA aptamer (quencher-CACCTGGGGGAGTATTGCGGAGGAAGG + anchor), 100 nM annealed; ATP concentration: 500 uM
Measured Metric: switch fluorescence ratio

>>> obs_value("GGATTTCTTA")
1
>>> obs_value("CATCTAGGGC")
1.04
>>> obs_value("TTTATAATCA")
0.967
>>> obs_value("TCACTCTATC")
1.05

====

The following sequences are shown together with reported switch fluorescence ratio values.
- Test system: ATP;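 further: ATP exposure 15 min at 22 °C before imaging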
- Assay Name: switch fluorescence ratio, 500 uM ATP over buffer (Cy3 cluster intensity, sum of 5 cycles each) (fold (ratio)); higher = stronger signal-on switching upon ATP binding; sequences stand for … in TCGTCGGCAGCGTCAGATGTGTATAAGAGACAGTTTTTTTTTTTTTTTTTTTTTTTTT…TC
- Setup Conditions: aptamer strand: ATP DNA aptamer (quencher-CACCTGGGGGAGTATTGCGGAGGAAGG + anchor), 100 nM annealed; ATP concentration: 500 uM
Measured Metric: switch fluorescence ratio

>>> obs_value("TTGAGTTTGA")
0.994
>>> obs_value("ATATATGGGA")
0.973
>>> obs_value("TGACTAGTTT")
1.01
>>> obs_value("TCACTTGGGT")
0.996

====

- Test system: ATP;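 further: ATP exposure 15 min at 22 °C before imaging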
- Assay Name: switch fluorescence ratio, 500 uM ATP over buffer (Cy3 cluster intensity, sum of 5 cycles each) (fold (ratio)); higher = stronger signal-on switching upon ATP binding; sequences stand for … in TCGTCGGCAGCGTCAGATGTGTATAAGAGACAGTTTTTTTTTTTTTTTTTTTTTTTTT…TC
- Setup Conditions: aptamer strand: ATP DNA aptamer (quencher-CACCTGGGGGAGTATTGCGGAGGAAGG + anchor), 100 nM annealed; ATP concentration: 500 uM
Measured Metric: switch fluorescence ratio

>>> obs_value("AGGAGGGGAG")
1.02
>>> obs_value("GTTATTGTGT")
0.999
>>> obs_value("GGCCGGGTTC")
1.01

====

The following sequences are shown together with reported switch fluorescence ratio values.
- System: ATP;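 further: ATP exposure 15 min at 22 °C before imaging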
- Assay Name: switch fluorescence ratio, 500 uM ATP over buffer (Cy3 cluster intensity, sum of 5 cycles each) (fold (ratio)); higher = stronger signal-on switching upon ATP binding; sequences stand for … in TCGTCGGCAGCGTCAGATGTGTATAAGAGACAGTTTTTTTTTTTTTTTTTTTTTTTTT…TC
- Setup Conditions: aptamer strand: ATP DNA aptamer (quencher-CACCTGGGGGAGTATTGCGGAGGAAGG + anchor), 100 nM annealed; ATP concentration: 500 uM
Measured Metric: switch fluorescence ratio

>>> obs_value("TAAATATTTA")
0.976
>>> obs_value("TTGATTACTC")
1.04
>>> obs_value("TCTCCAGATA")
1.12
>>> obs_value("GATTTTGGCG")
1.01
>>> obs_value("CGGGTTAAT")
1
>>> obs_value("CATTCATTGA")
0.998
>>> obs_value("GCGAGTTTGC")
1.02
>>> obs_value("CCGTGATATG")
2.49
>>> obs_value("ACGGGGTGTA")
0.986
>>> obs_value("CGGCGGGCGA")
1.03
>>> obs_value("CTCCTTTTTC")
0.976
>>> obs_value("ATAAACGTTT")
1.02
>>> obs_value("TTCGTTTTGA")
1.02
>>> obs_value("TCTTTGAGGT")
0.989
>>> obs_value("TTTTTTAGCT")
1.01
>>> obs_value("AGCAAACTTA")
1.14
>>> obs_value("GGGAACGGCC")
1.05
>>> obs_value("GAGGTGGTGG")
0.998
>>> obs_value("GGGGACAAAT")
1.05
>>> obs_value("CCCCAGGAAT")
1.24
>>> obs_value("TCAATGCGCC")
1.46
>>> obs_value("TTCTAAAGGG")
0.984
>>> obs_value("GGATCCAAAT")
0.947
>>> obs_value("AAGTGGTGGT")
0.989
>>> obs_value("AAAGGAGAGG")
1.01
>>> obs_value("CAGAAGGGAG")
0.98
>>> obs_value("TAAAATGTGA")
0.963
>>> obs_value("TTTGGCGTTT")
1.01
>>> obs_value("GAACGGGGGT")
1
>>> obs_value("CGTGTGGTAT")
1.01
>>> obs_value("TTTATTCTGT")
1
>>> obs_value("CCCCTTGTGT")
2.09
>>> obs_value("GCGGGGTCGT")
0.977
>>> obs_value("CCAGTATGTG")
1.04
>>> obs_value("GGGGATAGAA")
0.982
>>> obs_value("AACGTTTGCG")
0.986
>>> obs_value("TTATGCTTTC")
1.25

====

- Test system: ATP;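 further: ATP exposure 15 min at 22 °C before imaging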
- Assay Name: switch fluorescence ratio, 500 uM ATP over buffer (Cy3 cluster intensity, sum of 5 cycles each) (fold (ratio)); higher = stronger signal-on switching upon ATP binding; sequences stand for … in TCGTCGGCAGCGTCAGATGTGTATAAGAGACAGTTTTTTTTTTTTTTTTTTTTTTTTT…TC
- Setup Conditions: aptamer strand: ATP DNA aptamer (quencher-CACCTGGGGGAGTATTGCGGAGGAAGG + anchor), 100 nM annealed; ATP concentration: 500 uM
The following sequences are shown together with reported switch fluorescence ratio values.
Measured Metric: switch fluorescence ratio

>>> obs_value("TTTTTACGGT")
1.1
>>> obs_value("TCACGTGGTT")
1.03
>>> obs_value("TGCCTAAATA")
1
>>> obs_value("GAGGGTTGGG")
1.06
>>> obs_value("GGGATAGGGC")
1.04
>>> obs_value("TTCGACGCTA")
1.33
>>> obs_value("GGGCGCTTTC")
1.03
>>> obs_value("ATCCGTTTTG")
0.986
